The reported measurements were obtained from patent US20260308264.

Target: CD3ε (human, UniProt P07766)
Sequence (P07766 23-207): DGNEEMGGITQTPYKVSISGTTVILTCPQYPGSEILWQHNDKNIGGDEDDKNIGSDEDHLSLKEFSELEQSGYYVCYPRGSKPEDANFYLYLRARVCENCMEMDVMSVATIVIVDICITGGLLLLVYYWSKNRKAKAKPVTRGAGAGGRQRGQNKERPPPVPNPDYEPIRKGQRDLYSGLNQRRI
Test: BLI
Parameter Kd: see the listing below.
// units = nM; emit number, no label

Reported Kd for IL-5Rα×CD3ε scFv(L)/scFv-Fc (CD3ε arm) (antibody, V domains shown) VH: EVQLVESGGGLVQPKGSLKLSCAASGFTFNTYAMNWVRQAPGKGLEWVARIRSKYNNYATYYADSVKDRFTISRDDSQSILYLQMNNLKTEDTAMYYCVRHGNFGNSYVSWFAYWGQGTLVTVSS VL: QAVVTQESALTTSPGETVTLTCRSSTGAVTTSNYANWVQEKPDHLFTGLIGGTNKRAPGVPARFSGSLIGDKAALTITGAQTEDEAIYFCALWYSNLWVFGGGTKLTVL was 3.61

Reported Kd for IL-5Rα×CD3ε IgG analog (CD3ε arm) (antibody, V domains shown) VH: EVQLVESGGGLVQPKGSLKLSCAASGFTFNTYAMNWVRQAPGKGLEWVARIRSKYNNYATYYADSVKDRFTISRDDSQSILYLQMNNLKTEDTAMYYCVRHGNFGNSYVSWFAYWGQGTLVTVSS VL: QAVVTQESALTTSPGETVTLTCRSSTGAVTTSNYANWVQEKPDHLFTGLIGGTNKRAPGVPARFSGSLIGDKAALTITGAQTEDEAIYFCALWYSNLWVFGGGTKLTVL was 1.71

Reported Kd for IL-5Rα×CD3ε Diabody-Fc (CD3ε arm) (antibody, V domains shown) VH: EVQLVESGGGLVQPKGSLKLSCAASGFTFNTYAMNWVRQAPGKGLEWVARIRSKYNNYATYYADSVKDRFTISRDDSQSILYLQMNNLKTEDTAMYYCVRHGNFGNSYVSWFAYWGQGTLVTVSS VL: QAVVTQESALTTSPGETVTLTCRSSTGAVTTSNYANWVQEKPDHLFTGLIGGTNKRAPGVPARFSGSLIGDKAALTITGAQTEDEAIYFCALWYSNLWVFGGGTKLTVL was 8.41

Reported Kd for IL-5Rα×CD3ε BiTE(L)/scFv-Fc (CD3ε arm) (antibody, V domains shown) VH: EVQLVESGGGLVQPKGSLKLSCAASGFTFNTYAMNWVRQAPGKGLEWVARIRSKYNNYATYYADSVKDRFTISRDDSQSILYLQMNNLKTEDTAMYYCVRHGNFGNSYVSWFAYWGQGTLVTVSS VL: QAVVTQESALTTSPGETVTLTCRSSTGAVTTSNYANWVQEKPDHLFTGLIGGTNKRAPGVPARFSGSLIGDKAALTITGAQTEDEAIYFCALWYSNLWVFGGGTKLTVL was 4.62
